Data provenance is PubChem BioAssay (NCATS).

- System: CP238
- Method Notes: qHTS profiling for inhibitors of Plasmodium falciparum proliferation (AID 504749); note: nearly all actives have a fitted effect of over 60% in size
- Assay Setup: P. falciparum in erythrocytes, SYBR Green DNA, 72 h; series mostly up to 28.7 µM
Records with an inconclusive call do not appear. Active and inactive are the calls of the source. Calls come from the whole dose curve; as a rule, active = well fitted inhibition curve with a large enough effect; inconclusive = small, poorly fitted or top-dose-only effect; inactive = flat fitted curve, though single readings scatter.
Give your call using only these classes: active, inactive

Example results:
Query string: Outcome logged for "C[CH2][Hg][S]c1ccccc1C(=O)O" in this assay:
Result string: active

Query string: Per the records of this test, what outcome belongs to "O=C1CN(O)C(c2ccccc2)=c2cc(Cl)ccc2=N1" ?
Result string: inactive

Query string: For "F/C(COc1ccc2c(c1)[nH]c1ccccc12)=C1/CN2CCC1CC2" , what call appears in the results of this test?
Result string: active

Query string: Lab log entry: C[N+]1(C)CCCCC1COC(=O)C(O)(c1ccccc1)c1ccccc1 (stereo not drawn) — outcome as called in the assay?
Result string: inactive

Here's the next entry for you.
Query string: Test call for this molecule, please: O=C(CS(=O)C(c1ccccc1)c1ccccc1)NO (stereo not drawn)
Result string: inactive

###

- Method Notes: qHTS for differential inhibitors of proliferation of Plasmodium falciparum line Dd2 (AID 1882); note: nearly all actives have a fitted effect of over 65% in size
- Assay Setup: Plasmodium falciparum Dd2 proliferation inhibition; series mostly up to 28.7 µM
Results filed as inconclusive are left out. Activity calls are given as the source filed them. Calls follow the shape of the dose curve; as a rule, active = well fitted inhibition curve with a large enough effect; inconclusive = small, poorly fitted or top-dose-only effect; inactive = flat fitted curve, though single readings scatter.
Choose the fitting class; nothing outside active, inactive is accepted.

Query string: # lookup: test call for "CCCN1CC[C@@H]2c3cc(O)ccc3CC[C@@H]21"
Result string: inactive

Query string: State the result this test recorded for "CCN(CC)c1ncnc2c1ncn2[C@@H]1O[C@H](COP(=O)(O)OP(=O)(O)C(Br)(Br)P(=O)(O)O)[C@@H](O)[C@H]1O" .
Result string: inactive

Query string: So what was the verdict on CN1C2CCC1CC(OC(c1ccccc1)c1ccc(Cl)cc1)C2 (stereo not drawn) in this test?
Result string: active

Query string: Dear all, I need the recorded test outcome for CC1OC1P(=O)(O)O (stereo not drawn) , thank you.
Result string: inactive

Query string: Just curious, what result did "COc1ccc2c(c1)/C(=C/c1cnc[nH]1)C(=O)N2" get here?
Result string: active

Query string: What classification did "N[C@@H](Cn1oc(=O)[nH]c1=O)C(=O)O" end up with in this test?
Result string: inactive

Query string: Entry "O=C(O)c1cc[c]([Hg][Cl])cc1" : call = ?
Result string: active

Query string: # lookup: test call for "Cc1[nH]c2ccc(O)cc2c1CCN"
Result string: inactive

---
Query string: Hey, what did the test say about CCCN1CCCC2Cc3[nH]ncc3CC21 (stereo not drawn) ?
Result string: inactive

Query string: Lab log entry: "C[Se]C[C@H](N)C(=O)O" — outcome as called in the assay?
Result string: inactive

Query string: Field: outcome | Entry: CC(C)(C)c1o[nH]c(=O)c1CC(N)C(=O)O (stereo not drawn)
Result string: inactive

Query string: Short answer needed: outcome of this test for "Cc1c2ccncc2c(C)c2c1[nH]c1ccccc12" ?
Result string: active

Query string: What classification did CC12NC(Cc3ccccc31)c1ccccc12 (stereo not drawn) end up with in this test?
Result string: active

###

- Target Of Assay: Chromobox protein homolog 1 (Homo sapiens)
- Method Notes: qHTS Validation Assay for Inhibitors of HP1-beta Chromodomain Interactions with Methylated Histone Tails (AID 488953); note: nearly all actives have a fitted effect of over 50% in size
- Assay Setup: HP1-beta chromodomain / methylated histone peptide binding assay; series mostly up to 114 µM
Records with an inconclusive call do not appear. Calls of active or inactive are those of the source. Calls come from the whole dose curve; as a rule, active = well fitted inhibition curve with a large enough effect; inconclusive = small, poorly fitted or top-dose-only effect; inactive = no such curve, though single readings can be large or run the other way.
Select the correct class. Options are yes = active, no = inactive and nothing else.

Query string: Give the logged outcome of this assay for the following molecule: CC12NC(Cc3ccccc31)c1ccccc12 (centres undefined)
Result string: no

Query string: Short answer needed: outcome of this test for "Cc1c2ccncc2c(C)c2c1[nH]c1ccccc12" ?
Result string: yes

Query string: How did this test come out for "NC(=O)COc1c(F)cc(SCCNS(=O)(=O)c2ccccc2)cc1F" ?
Result string: no

Query string: Give the logged outcome of this assay for the following molecule: C=CCN1CCC23c4c5ccc(O)c4O[C@H]2C(=O)CC[C@@]3(O)C1C5 (some centres undefined)
Result string: no

Query string: Which outcome did this test record for the molecule "CCOC(=O)c1ncn2c1[C@@H]1CCCN1C(=O)c1cc(OC)ccc1-2" ?
Result string: no

Query string: Called result for "CCCN(CCC)C1Cc2cc(OC)c(OC)cc2C1"
Result string: no

Query string: Returns: the outcome recorded for "NNC(N)=O" in this assay.
Result string: no

Query string: Returns: the outcome recorded for "CN1CCc2cc(O)cc3c2[C@H]1Cc1ccc(O)c(O)c1-3" in this assay.
Result string: yes

Query string: Answer briefly: the call reported for "CCCN1CCc2cccc3c2[C@H]1Cc1ccc(O)c(O)c1-3" in this assay.
Result string: yes

Query string: Assay outcome for C[C@]12Cc3cn4c(nc3C=C1CCC1C2CC[C@@]2(C)[C@H]1CC[C@@]2(O)C#N)nc1ccccc14 (some centres undefined) : what was it?
Result string: no

***
Query string: Query: recorded result category for CN1CC[C@@]2(C)c3cc(O)ccc3N(C)C12 (some centres undefined) in this test
Result string: yes

Query string: In this assay, the call recorded for "CC(=O)NBr" was what?
Result string: no

Query string: What outcome does the record of this test show for "COc1ccc2c(c1)c(CCN1CCOCC1)c(C)n2C(=O)c1cccc(Cl)c1Cl" ?
Result string: yes

Query string: Hi, sorry to bother you, what did the test record for "N[C@@H](Cn1ccc(=O)[nH]c1=O)C(=O)O" ?
Result string: no

###

- Test system: AA1029
- Method Notes: qHTS profiling for inhibitors of Plasmodium falciparum proliferation (AID 504749); note: nearly all actives have a fitted effect of over 60% in size
- Assay Setup: P. falciparum in erythrocytes, SYBR Green DNA, 72 h; series mostly up to 28.7 µM
Results filed as inconclusive are left out. Activity calls are given as the source filed them. Calls follow the shape of the dose curve; as a rule, active = well fitted inhibition curve with a large enough effect; inconclusive = small, poorly fitted or top-dose-only effect; inactive = flat fitted curve, though single readings scatter.
Pick one: active, inactive

Worked cases, answers included:
Query string: Outcome logged for NCC(O)c1cccc(O)c1 (configuration not stated) in this assay:
Result string: inactive

Query string: Query: recorded result category for CC12NC(Cc3ccccc31)c1ccccc12 (configuration not stated) in this test
Result string: active

Query string: Per the assay record, what outcome was assigned to C[C@H]1CC[C@@H]2[C@@H](C)[C@H]3[C@H](C[C@H]4[C@@H]5CC=C6CC(O[C@@H]7O[C@H](CO)[C@H](O)[C@H](O[C@@H]8O[C@H](CO)[C@@H](O)[C@H](O)[C@H]8O)[C@H]7O[C@H]7O[C@@H](C)[C@H](O)[C@@H](O)[C@H]7O)CC[C@]6(C)[C@H]5CC[C@]34C)N2C1 (some centres not stated) ?
Result string: inactive

Query string: Test call, this molecule: "O=C1CCO1"
Result string: inactive

Query string: Each molecule tested received a call. Report the one for "S=C(S)N1CCNCC1" .
Result string: inactive

Query string: How did this test come out for O=C1CCCCC1CN1CCCCC1 (configuration not stated) ?
Result string: inactive

Here's the next entry for you.
Query string: Could you kindly confirm the outcome this assay logged for "c1ccc2cc(CC3=NCCN3)ccc2c1" ?
Result string: inactive

###

- Tested on: HACAT
- Method Notes: qHTS assay to identify novel small-molecules to repurpose for Merkel cell carcinoma treatment (AID 1296009); note: nearly all actives have a fitted effect of over 60% in size
- Assay Setup: MCC and control cell lines, CellTiter-Glo viability, 72 h; at 44.8 µM (top of the series) unless noted
Records with an inconclusive call do not appear. Active and inactive are the calls of the source. Calls come from the whole dose curve; as a rule, active = well fitted inhibition curve with a large enough effect; inconclusive = small, poorly fitted or top-dose-only effect; inactive = flat fitted curve, though single readings scatter.
Readout Name: outcome

Query string: Identify outcome associated with the molecule C/C=C(\C)C(=O)OC1CC2C(CC=C3CC(OC4CC(OC)C(OC5CC(OC)C(OC6OC(C)C(OC7OC(CO)C(O)C(O)C7O)C(OC)C6O)C(C)O5)C(C)O4)CCC32C)C2(O)CCC(C(C)=O)C12C (configuration not stated)
Result string: inactive [at 9.27 µM]

Query string: Determine from records and report outcome for O=C(O)c1ccnc2cc(C(OCCN3CCCCC3)c3ccccc3Cl)[nH]c12 (configuration not stated)
Result string: inactive

Query string: State, in one line, measured outcome of "CC[C@H]1CN2CC[C@H]1C[C@H]2[C@H](O)c1ccnc2ccc(OC)cc12"
Result string: inactive

Query string: Give outcome for "O=C1C[C@@H]2OCC=C3CN4CC[C@]56c7ccccc7N1[C@H]5[C@H]2[C@H]3C[C@H]46"
Result string: inactive

Query string: Note down outcome recorded for "COC1=CC(=O)O[C@@H](/C=C/c2ccccc2)C1"
Result string: inactive

API: the following record is the query input.
Query string: Give the reported outcome for this molecule. COC1CC(OC2CCC3(C)C(=CCC4C3CCC3(C)C(C(C)OC5OC(COC6OC(CO)C(O)C(O)C6O)C(O)C(O)C5O)CCC43O)C2)OC(C)C1OC1OC(C)C(O)C(OC)C1O (configuration not stated)
Result string: inactive [at 9.27 µM]
